Experiment: Selectivity index, ratio of ED50 for human HepG2 cells to MIC for Staphylococcus aureus 3R7089 strain Oxford/ATCC 9144
Type: toxicity
Details: read-out: Selectivity Index
Square brackets hold non-standard residues; d marks the D form. Peptide text beside a SMILES is read from it. Gly(Nα-4-Cl-benzyl) = O=C(O)CNCc1ccc(Cl)cc1; Gly(N-(CH2)6NH2) = NCCCCCCNCC(=O)O; Nphe = O=C(O)CNCc1ccccc1; Nlys = NCCCCNCC(=O)O
attribute measured: selectivity ratio

stdin: Find the recorded selectivity ratio belonging to NCCCCCCNCC(=O)N(CC(=O)N(CC(=O)N(CCCCCCN)CC(=O)N(CC(=O)N(CC(=O)N(CCCCCCN)CC(=O)N(CC(=O)N(CC(=O)N(CCCCCCN)CC(=O)N(CC(=O)N(CC(N)=O)Cc1ccccc1)Cc1ccccc1)Cc1ccccc1)Cc1ccccc1)Cc1ccccc1)Cc1ccccc1)Cc1ccccc1)Cc1ccccc1 (H-[Gly(N-(CH2)6NH2)][Nphe][Nphe][Gly(N-(CH2)6NH2)][Nphe][Nphe][Gly(N-(CH2)6NH2)][Nphe][Nphe][Gly(N-(CH2)6NH2)][Nphe][Nphe]-NH2) and report it.
stdout: 50

stdin: Find the recorded selectivity ratio belonging to NCCCCNCC(=O)N(CC(=O)N(CC(=O)N(CCCCN)CC(=O)N(CC(=O)N(CC(=O)N(CCCCN)CC(=O)N(CC(=O)N(CC(N)=O)Cc1ccc(Cl)cc1)Cc1ccc(Cl)cc1)Cc1ccc(Cl)cc1)Cc1ccc(Cl)cc1)Cc1ccc(Cl)cc1)Cc1ccc(Cl)cc1 (H-[Nlys][Gly(Nα-4-Cl-benzyl)][Gly(Nα-4-Cl-benzyl)][Nlys][Gly(Nα-4-Cl-benzyl)][Gly(Nα-4-Cl-benzyl)][Nlys][Gly(Nα-4-Cl-benzyl)][Gly(Nα-4-Cl-benzyl)]-NH2) and report it.
stdout: 8

---

For each entry below, report its CC50 at 24 h value.
Test: Cytotoxicity against human HepG2 cells assessed as reduction in cell viability pretreated for 1 hr followed by DMEM addition measured after 24 hrs by alamar blue assay
Type: cell-based
Details: read-out: ED50
Square brackets hold non-standard residues; d marks the D form. Peptide text beside a SMILES is read from it. Gly(N-(CH2)6NH2) = NCCCCCCNCC(=O)O; Gly(N-2-aminoethyl) = NCCNCC(=O)O; Nspe = C[C@H](NCC(=O)O)c1ccccc1; Nphe = O=C(O)CNCc1ccccc1; Nlys = NCCCCNCC(=O)O

stdin: Find the recorded CC50 at 24 h belonging to NCCCCCCNCC(=O)N(CC(=O)N(CC(=O)N(CCCCCCN)CC(=O)N(CC(=O)N(CC(=O)N(CCCCCCN)CC(=O)N(CC(=O)N(CC(N)=O)Cc1ccccc1)Cc1ccccc1)Cc1ccccc1)Cc1ccccc1)Cc1ccccc1)Cc1ccccc1 (H-[Gly(N-(CH2)6NH2)][Nphe][Nphe][Gly(N-(CH2)6NH2)][Nphe][Nphe][Gly(N-(CH2)6NH2)][Nphe][Nphe]-NH2) and report it.
stdout: > 100 µM

stdin: Find the recorded CC50 at 24 h belonging to NCCNCC(=O)N(CC(=O)N(CC(=O)N(CCN)CC(=O)N(CC(=O)N(CC(=O)N(CCN)CC(=O)N(CC(=O)N(CC(N)=O)Cc1ccccc1)Cc1ccccc1)Cc1ccccc1)Cc1ccccc1)Cc1ccccc1)Cc1ccccc1 (H-[Gly(N-2-aminoethyl)][Nphe][Nphe][Gly(N-2-aminoethyl)][Nphe][Nphe][Gly(N-2-aminoethyl)][Nphe][Nphe]-NH2) and report it.
stdout: > 100 µM

stdin: Find the recorded CC50 at 24 h belonging to NCCCCNCC(=O)N(CC(=O)N(CC(=O)N(CCCCN)CC(=O)N(CC(=O)N(CC(N)=O)Cc1ccccc1)Cc1ccccc1)Cc1ccccc1)Cc1ccccc1 (H-[Nlys][Nphe][Nphe][Nlys][Nphe][Nphe]-NH2) and report it.
stdout: > 100 µM

stdin: Find the recorded CC50 at 24 h belonging to CC(c1ccccc1)N(CC(=O)N(CCCCN)CC(=O)N(CC(=O)N(CC(=O)N(CCCCN)CC(=O)N(CC(=O)N(CC(N)=O)[C@@H](C)c1ccccc1)[C@@H](C)c1ccccc1)Cc1ccc(F)cc1)Cc1ccc(F)cc1)C(=O)CN(C(=O)CN(CCCCN)C(=O)CN(Cc1ccc(F)cc1)C(=O)CN(Cc1ccc(F)cc1)C(=O)CNCCCCN)[C@@H](C)c1ccccc1 (single isomer, unassigned) and report it.
stdout: 55 µM

stdin: Find the recorded CC50 at 24 h belonging to C[C@@H](c1ccccc1)N(CC(N)=O)C(=O)CN(C(=O)CN(CCCCCCN)C(=O)CN(C(=O)CN(C(=O)CN(CCCCCCN)C(=O)CN(C(=O)CN(C(=O)CNCCCCCCN)[C@@H](C)c1ccccc1)[C@@H](C)c1ccccc1)[C@@H](C)c1ccccc1)[C@@H](C)c1ccccc1)[C@@H](C)c1ccccc1 (H-[Gly(N-(CH2)6NH2)][Nspe][Nspe][Gly(N-(CH2)6NH2)][Nspe][Nspe][Gly(N-(CH2)6NH2)][Nspe][Nspe]-NH2) and report it.
stdout: > 100 µM

stdin: Find the recorded CC50 at 24 h belonging to CCCCCN(CC(=O)N(CC(=O)N(CC(=O)N(CCCCN)CC(=O)N(CC(=O)N(CC(N)=O)[C@@H](C)c1ccccc1)[C@@H](C)c1ccccc1)C(C)c1ccccc1)[C@@H](C)c1ccccc1)C(=O)CN(C(=O)CN(C(=O)CN(CCCCN)C(=O)CN(C(=O)CN(C(=O)CNCCCCN)[C@@H](C)c1ccccc1)C(C)c1ccccc1)[C@@H](C)c1ccccc1)C(C)c1ccccc1 (single isomer, unassigned) and report it.
stdout: 22 µM

stdin: Find the recorded CC50 at 24 h belonging to CC(c1ccccc1)N(CC(=O)N(CCN)CC(=O)N(CC(=O)N(CC(=O)N(CCN)CC(=O)N(CC(=O)N(CC(N)=O)[C@@H](C)c1ccccc1)[C@@H](C)c1ccccc1)C(C)c1ccccc1)[C@@H](C)c1ccccc1)C(=O)CN(C(=O)CNCCN)C(C)c1ccccc1 (single isomer, unassigned) and report it.
stdout: > 100 µM

---

For each entry below, report its selectivity ratio value.
Experiment: Selectivity index, ratio of ED50 for human HepG2 cells to MIC for Staphylococcus aureus 3R7089 strain Oxford/ATCC 9144
Type: toxicity
Conditions: read-out: Selectivity Index
Square brackets hold non-standard residues; d marks the D form. Peptide text beside a SMILES is read from it. Gly(N-(CH2)6NH2) = NCCCCCCNCC(=O)O; Nspe = C[C@H](NCC(=O)O)c1ccccc1; NhArg = N=C(N)NCCCCNCC(=O)O; Nphe = O=C(O)CNCc1ccccc1
In your answer, state the number alone without any accompanying words.

stdin: Find the recorded selectivity ratio belonging to NCCCCNCC(=O)N(CC(=O)N(CC(=O)N(CCCCN)CC(=O)N(CC(=O)N(CC(=O)N(CCCCN)CC(=O)N(CC(=O)N(CC(N)=O)Cc1ccccc1)Cc1ccccc1)Cc1ccccc1)Cc1ccccc1)Cc1ccccc1)Cc1ccccc1 and report it.
stdout: 4

stdin: Find the recorded selectivity ratio belonging to CC(c1ccccc1)N(CC(=O)N(CCCCN)CC(=O)N(CC(=O)N(CC(=O)N(CCCCN)CC(=O)N(CC(=O)N(CC(N)=O)[C@@H](C)c1ccccc1)Cc1ccc(F)cc1)C(C)c1ccccc1)Cc1ccc(F)cc1)C(=O)CN(Cc1ccc(F)cc1)C(=O)CNCCCCN (single isomer, unassigned) and report it.
stdout: 12

stdin: Find the recorded selectivity ratio belonging to C[C@@H](c1ccccc1)N(CC(N)=O)C(=O)CN(C(=O)CN(CCCCNC(=N)N)C(=O)CN(C(=O)CN(C(=O)CN(CCCCNC(=N)N)C(=O)CN(C(=O)CN(C(=O)CN(CCCCNC(=N)N)C(=O)CN(C(=O)CN(C(=O)CNCCCCNC(=N)N)[C@@H](C)c1ccccc1)[C@@H](C)c1ccccc1)[C@@H](C)c1ccccc1)[C@@H](C)c1ccccc1)[C@@H](C)c1ccccc1)[C@@H](C)c1ccccc1)[C@@H](C)c1ccccc1 (H-[NhArg][Nspe][Nspe][NhArg][Nspe][Nspe][NhArg][Nspe][Nspe][NhArg][Nspe][Nspe]-NH2) and report it.
stdout: 12

stdin: Find the recorded selectivity ratio belonging to C[C@@H](c1ccccc1)N(CC(N)=O)C(=O)CN(C(=O)CN(CCCCCCN)C(=O)CN(C(=O)CN(C(=O)CNCCCCCCN)[C@@H](C)c1ccccc1)[C@@H](C)c1ccccc1)[C@@H](C)c1ccccc1 and report it.
stdout: 1

stdin: Find the recorded selectivity ratio belonging to C[C@@H](c1ccccc1)N(CC(N)=O)C(=O)CN(Cc1ccc(F)cc1)C(=O)CN(CCCCN)C(=O)CN(C(=O)CN(Cc1ccc(F)cc1)C(=O)CN(CCCCN)C(=O)CN(C(=O)CN(Cc1ccc(F)cc1)C(=O)CN(CCCCN)C(=O)CN(C(=O)CN(Cc1ccc(F)cc1)C(=O)CNCCCCN)[C@@H](C)c1ccccc1)[C@@H](C)c1ccccc1)[C@@H](C)c1ccccc1 and report it.
stdout: 13

stdin: Find the recorded selectivity ratio belonging to C[C@@H](c1ccccc1)N(CC(N)=O)C(=O)CN(C(=O)CN(CCCCCCN)C(=O)CN(C(=O)CN(C(=O)CN(CCCCCCN)C(=O)CN(C(=O)CN(C(=O)CN(CCCCCCN)C(=O)CN(C(=O)CN(C(=O)CNCCCCCCN)[C@@H](C)c1ccccc1)[C@@H](C)c1ccccc1)[C@@H](C)c1ccccc1)[C@@H](C)c1ccccc1)[C@@H](C)c1ccccc1)[C@@H](C)c1ccccc1)[C@@H](C)c1ccccc1 (H-[Gly(N-(CH2)6NH2)][Nspe][Nspe][Gly(N-(CH2)6NH2)][Nspe][Nspe][Gly(N-(CH2)6NH2)][Nspe][Nspe][Gly(N-(CH2)6NH2)][Nspe][Nspe]-NH2) and report it.
stdout: 21

stdin: Find the recorded selectivity ratio belonging to CC(c1ccccc1)N(CC(=O)N(CCCCN)CC(=O)N(CC(=O)N(CC(=O)N(CCCCN)CC(=O)N(CC(=O)N(CC(N)=O)[C@@H](C)c1ccccc1)[C@@H](C)c1ccccc1)Cc1ccc(F)cc1)Cc1ccc(F)cc1)C(=O)CN(C(=O)CNCCCCN)[C@@H](C)c1ccccc1 (single isomer, unassigned) and report it.
stdout: 14

stdin: Find the recorded selectivity ratio belonging to NCCCCCCNCC(=O)N(CC(=O)N(CC(=O)N(CCCCCCN)CC(=O)N(CC(=O)N(CC(=O)N(CCCCCCN)CC(=O)N(CC(=O)N(CC(N)=O)Cc1ccccc1)Cc1ccccc1)Cc1ccccc1)Cc1ccccc1)Cc1ccccc1)Cc1ccccc1 (H-[Gly(N-(CH2)6NH2)][Nphe][Nphe][Gly(N-(CH2)6NH2)][Nphe][Nphe][Gly(N-(CH2)6NH2)][Nphe][Nphe]-NH2) and report it.
stdout: 17
